System: PC-3 prostate
procedureDetails: NCI tumour cell line growth inhibition, 48 h
metricName: TGI

Recorded results for 8 compounds are shown here.
Cc1cc(N(CCNc2ccnc3cc(Cl)ccc23)Cc2cccs2)nc(Cl)n1 = 3.94 µM
CC(=O)N1C(Nc2cnc3ccccc3c2)CCN1c1ccccc1 (stereo not given) = > 10 µM
O=C(Nc1ccc(Cl)cc1)c1cc2c(cc1Cl)Sc1nccn1S2(=O)=O = > 100 µM
Nc1ccc(I)cn1 = > 100 µM
CN(C(=O)CCC(=O)O)c1ccccc1C(=O)O = > 100 µM
O=S(/C=C/C=C/S(=O)(=O)c1ccccc1)c1ccccc1 (stereo not given) = > 10 µM
CCOC(=O)c1cn2c(n1)sc1cc(C)c(C)cc12 = 45.7 µM
C/C(=N\NC(=O)c1ccncc1)c1ccccc1Cl = > 100 µM

Returns the measured TGI for the input compound. Input: CC(=O)OC1CC2C(C)(C)C(=O)C=C[C@]2(C)C2CC[C@]3(C)C(OCC(=O)[C@H]3c3ccoc3)[C@]12C (stereo not given in full)
17.1 µM

For CC(=O)N1CCC(Nc2cc(C(=O)NC[C@H](O)CN3CCc4ccccc4C3)ncn2)CC1 then?
> 100 µM

Check CCOC(=O)c1nnn(-c2no[n+]([O-])c2-c2ccc(OC)cc2)c1COc1cccc2cccnc12 too.
16.3 µM

Another compound: [N-]=[N+]=Nc1c(N2CCOCC2)c(Cl)nc2ccccc12
> 100 µM
